system: ragweed (common ragweed, Ambrosia elatior); assay: Test A greenhouse herbicide test, pre- and postemergence; format: in vivo; details: Postemergence, 500 g ai/ha; 0 to 100 scale, 0 is no effect, 100 is complete control
Each item that follows carries a reported Ragweed plant response rating.
Give a plain numeric answer without units written out.

Task item: Look up Ragweed plant response rating for this compound: CCOC(=O)Oc1c(C)nn(C)c(=O)c1-c1c(C)sc2ccc(C)cc12
Reply: 70

Task item: // query: COc1nn(C)c(=O)c(-c2cccc3ccccc23)c1O
Reply: 100

Task item: Cool, now Cc1cc(C)c2sc(C)c(-c3c(OC(=O)OCCCl)c(C)nn(C)c3=O)c2c1
Reply: 90

Task item: Would you mind doing CCOC(=O)Oc1c(C)nn(C)c(=O)c1-c1c(C)ccc2ccccc12 as well?
Reply: 100

Task item: Please give the result for COc1ccc2ccccc2c1-c1c(O)c(C)nn(C)c1=O too.
Reply: 90

Task item: How about CCC(=O)Oc1c(C)nn(C)c(=O)c1-c1c(C)sc2c(C)cc(C)cc12 ?
Reply: 100

Task item: Param item: CCOC(=O)Oc1c(C)nn(C)c(=O)c1-c1c(CC)ccc2ccccc12
Reply: 90

Task item: Lookup CC(=O)Oc1c(C)nn(C)c(=O)c1-c1ccc(F)c2ccccc12
Reply: 100

Task item: Next: Cc1ccc2ccccc2c1-c1c(O)c(C)nn(C)c1=O
Reply: 100
